target: human CD33 L270A (human, UniProt P20138 18-364); test: alanine scan, flow cytometry, HEK293-T;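 further: antibody binding to each alanine-substituted CD33 mutant expressed transiently in HEK293-T, read as fluorescence minus background, mean of duplicates, relative to wild-type CD33 set as 100%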
Sequence (P20138 18-364 L270A limits assumed): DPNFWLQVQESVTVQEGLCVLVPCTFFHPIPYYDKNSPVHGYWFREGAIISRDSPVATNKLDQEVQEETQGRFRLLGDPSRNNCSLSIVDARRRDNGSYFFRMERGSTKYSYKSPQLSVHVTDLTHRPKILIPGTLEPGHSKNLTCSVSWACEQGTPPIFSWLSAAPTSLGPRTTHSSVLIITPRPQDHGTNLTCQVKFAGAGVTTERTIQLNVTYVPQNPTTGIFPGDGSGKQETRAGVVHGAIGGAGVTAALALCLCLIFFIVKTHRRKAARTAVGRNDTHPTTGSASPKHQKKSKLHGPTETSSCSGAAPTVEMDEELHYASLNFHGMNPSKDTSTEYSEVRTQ
measuredAttribute: Mean % WT Binding (% WT binding)

Refmab #1 (antibody, V domains shown, The alanine scan used IgG or Fab; also called hP67.6) VH: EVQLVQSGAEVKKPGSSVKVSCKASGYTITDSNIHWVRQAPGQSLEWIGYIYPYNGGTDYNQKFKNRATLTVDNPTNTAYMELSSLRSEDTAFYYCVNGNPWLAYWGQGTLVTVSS VL: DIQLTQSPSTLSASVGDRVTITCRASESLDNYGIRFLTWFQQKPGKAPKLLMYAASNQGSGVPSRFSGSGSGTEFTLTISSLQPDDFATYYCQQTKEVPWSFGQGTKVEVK ... 102
Refmab #4 (antibody, V domains shown, The alanine scan used IgG or Fab) VH: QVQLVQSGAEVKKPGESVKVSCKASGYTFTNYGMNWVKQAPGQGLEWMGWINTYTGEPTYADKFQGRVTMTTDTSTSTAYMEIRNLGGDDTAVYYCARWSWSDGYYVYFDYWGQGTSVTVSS VL: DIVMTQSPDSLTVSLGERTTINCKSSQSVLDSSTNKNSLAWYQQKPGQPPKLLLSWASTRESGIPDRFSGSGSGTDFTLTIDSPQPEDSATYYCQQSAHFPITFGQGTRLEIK ... 97.3
Refmab #3 (antibody, V domains shown, The alanine scan used IgG or Fab) VH: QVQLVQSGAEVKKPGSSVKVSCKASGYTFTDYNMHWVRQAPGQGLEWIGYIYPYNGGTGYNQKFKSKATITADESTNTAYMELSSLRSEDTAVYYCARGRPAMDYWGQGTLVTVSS VL: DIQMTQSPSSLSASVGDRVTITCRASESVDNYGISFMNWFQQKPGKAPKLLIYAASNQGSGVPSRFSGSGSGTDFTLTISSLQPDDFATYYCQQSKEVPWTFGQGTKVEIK ... 125
